Just for reference, paper PMC11345841 is where these values come from.

# experimental_target: SYK (Homo sapiens, UniProt P43405)
# Construct: purchased Eurofins DiscoverX KINOMEscan (scanTK)
# assay_notes: KINOMEscan ScanTK
# Format: binding
# test_settings: @1000nM, read-out: %Control
# if measured remaining binding at 1 µM < 90%: Yes  # else: No

# compound, qualitative_label
data = [
    ("Cc1cnc(S(C)(=O)=O)nc1N1CCCC(n2nc(-c3ccc(Oc4ccccc4)cc3)c3c(N)ncnc32)C1 (centres unmarked)", "Yes"),
]

**Query** Bench note: check whether COC(=O)c1cnc(S(C)(=O)=O)nc1N1CCCC(n2nc(-c3ccc(Oc4ccccc4)cc3)c3c(N)ncnc32)C1 (centres unmarked) shows remaining binding at 1 µM below 90%
**Result** Yes

**Query** Bench note: check whether "CCOC(=O)c1cnc(S(C)(=O)=O)nc1N1CCC[C@@H](n2nc(-c3ccc(Oc4ccccc4)cc3)c3c(N)ncnc32)C1" shows remaining binding at 1 µM below 90%
**Result** No
